- TESTED SYSTEM: JAK3 tyrosine kinase (Homo sapiens, UniProt P52333)
- Sequence (P52333 whole entry): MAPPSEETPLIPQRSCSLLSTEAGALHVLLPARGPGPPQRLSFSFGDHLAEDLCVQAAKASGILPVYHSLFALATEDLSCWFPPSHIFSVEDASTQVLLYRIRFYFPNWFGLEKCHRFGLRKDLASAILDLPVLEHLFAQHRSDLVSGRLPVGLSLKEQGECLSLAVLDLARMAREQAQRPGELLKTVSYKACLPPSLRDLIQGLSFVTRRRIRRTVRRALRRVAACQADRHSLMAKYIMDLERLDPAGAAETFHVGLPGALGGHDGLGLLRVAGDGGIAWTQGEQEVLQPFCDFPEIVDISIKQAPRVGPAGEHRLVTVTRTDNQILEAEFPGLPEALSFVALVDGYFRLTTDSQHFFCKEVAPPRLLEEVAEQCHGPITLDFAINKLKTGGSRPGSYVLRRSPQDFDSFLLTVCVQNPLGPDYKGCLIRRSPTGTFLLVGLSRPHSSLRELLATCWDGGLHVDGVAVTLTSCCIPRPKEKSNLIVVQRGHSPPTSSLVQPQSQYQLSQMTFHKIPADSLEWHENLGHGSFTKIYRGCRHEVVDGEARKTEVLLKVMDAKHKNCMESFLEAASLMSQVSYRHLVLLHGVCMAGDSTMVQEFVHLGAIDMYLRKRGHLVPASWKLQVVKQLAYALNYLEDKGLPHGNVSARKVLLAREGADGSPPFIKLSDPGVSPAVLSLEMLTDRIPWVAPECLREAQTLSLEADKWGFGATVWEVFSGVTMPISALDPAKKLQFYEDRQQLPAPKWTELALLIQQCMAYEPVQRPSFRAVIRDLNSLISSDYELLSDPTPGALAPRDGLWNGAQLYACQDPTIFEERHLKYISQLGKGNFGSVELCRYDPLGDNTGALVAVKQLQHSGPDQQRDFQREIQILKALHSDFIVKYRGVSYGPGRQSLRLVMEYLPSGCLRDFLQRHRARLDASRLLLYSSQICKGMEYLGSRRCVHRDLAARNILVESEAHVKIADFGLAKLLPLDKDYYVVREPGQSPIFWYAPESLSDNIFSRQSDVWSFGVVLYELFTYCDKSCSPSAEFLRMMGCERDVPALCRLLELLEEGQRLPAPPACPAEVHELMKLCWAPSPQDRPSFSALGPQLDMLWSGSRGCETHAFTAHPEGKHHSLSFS
Counter-ions that a name gives are not always drawn.
Rule: IC50 below 200 nM gives 1. Equal to or above 200 nM gives 0.

MOLECULE | ANSWER LABEL
C[C@H](Nc1nc(Nc2cnccn2)cc(N2CCOCC2)n1)c1ccc(F)cc1 [Example 20] | 1
C[C@H](Nc1cc(C(=O)NC(C)(C)C)cc(Nc2cnccn2)n1)c1ccc(F)cc1 | 0
C[C@H](Nc1nc(Nc2cnccn2)cc(-c2ccc(S(C)(=O)=O)cc2)n1)c1ccc(F)cc1 [Example 10, hydrochloride] | 1
C[C@H](Nc1nc(Nc2cnccn2)cc(N2CCC(O)(CO)CC2)n1)c1ccc(F)cc1 | 1
C[C@H](Nc1nc(Nc2cnccn2)cc(N(CCO)CCO)n1)c1ccc(F)cc1 [Example 61, hydrochloride] | 1
C[C@H](Nc1cc(-c2cn[nH]c2)cc(Nc2cnccn2)n1)c1ccc(F)cc1 | 1
C[C@H](Nc1cc(-c2ccoc2)cc(Nc2cnccn2)n1)c1ccc(F)cc1 | 0
C[C@H](Nc1cc(N2CC(O)(C(F)(F)F)C2)cc(Nc2cnccn2)n1)c1ccc(F)cc1 [Example 206, hydrochloride] | 0
C[C@H](Nc1cc(N2CC(F)(F)C2)cc(Nc2cnccn2)n1)c1ccc(F)cc1 [Example 207, hydrochloride] | 0
C[C@H](Nc1nc(Nc2cnccn2)cc(N2CC(C)(O)C2)n1)c1ccc(F)cc1 [Example 184, hydrochloride] | 1
C[C@H](Nc1nc(Nc2cnccn2)cc(-c2ccoc2)n1)c1ccc(F)cc1 [Example 82, hydrochloride] | 1
C[C@H](Nc1nc(Nc2cnccn2)cc(-c2cccc(C#N)c2)n1)c1ccc(F)cc1 | 0
C[C@H](Nc1cc(-c2cnn(C)c2)cc(Nc2cnccn2)n1)c1ccc(F)cc1 [Example 30, maleate] | 1
C[C@H](Nc1nc(Nc2cnccn2)cc(N2CCN(S(C)(=O)=O)CC2)n1)c1ccc(F)cc1 [Example 65, hydrochloride] | 1
